The measurements presented in this section are drawn from patent US20240067728A1.

Biological target: PD-L1 on CHO-PD-L1 cells (Promega PD-1/PD-L1 Blockade Bioassay) (UniProt Q9NZQ7 19-290, limits assumed)
Sequence (Q9NZQ7 19-290 limits assumed): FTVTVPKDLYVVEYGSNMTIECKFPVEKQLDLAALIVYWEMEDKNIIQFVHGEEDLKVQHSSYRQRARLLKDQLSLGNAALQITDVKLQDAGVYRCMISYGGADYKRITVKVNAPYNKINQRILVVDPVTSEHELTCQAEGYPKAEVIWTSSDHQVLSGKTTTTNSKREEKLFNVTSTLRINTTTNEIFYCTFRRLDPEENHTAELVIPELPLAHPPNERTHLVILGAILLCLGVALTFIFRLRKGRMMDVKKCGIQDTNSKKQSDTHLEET
Experiment: cell-based or functional assay
Recorded metric: EC50 (read off the curve)

Input: Name the reported EC50 (read off the curve) value associated with the binder L1-R2-4-36 (antibody, human IgG1, kappa, V domains shown) VH: EVQLVESGGGLVQPGGSLRLSCAASGFTFSDSWIHWVRQAPGKGLEWVGWISPYGGSTYYADDFRHRFTISADTSKNTAYLQMNSLRAEDTAVYYCARRHWPGGFDYWGQGTLVTVSS VL: EIVLTQSPSSLSASVGDRVTITCLASQTIGTWLAWYQQKPGKSPQLLIYAASTLQSGVPSRFSGSGSGTDFTLTISSLQPEDVATYYCQQYYSTPRTFGQGTKVEIKR
Output: ~1 µg/mL
